- SYSTEM_UNDER_TEST: human Siglec-7 on primary human monocyte-derived dendritic cells (human, UniProt Q9Y286 19-467)
- Sequence (Q9Y286 19-467): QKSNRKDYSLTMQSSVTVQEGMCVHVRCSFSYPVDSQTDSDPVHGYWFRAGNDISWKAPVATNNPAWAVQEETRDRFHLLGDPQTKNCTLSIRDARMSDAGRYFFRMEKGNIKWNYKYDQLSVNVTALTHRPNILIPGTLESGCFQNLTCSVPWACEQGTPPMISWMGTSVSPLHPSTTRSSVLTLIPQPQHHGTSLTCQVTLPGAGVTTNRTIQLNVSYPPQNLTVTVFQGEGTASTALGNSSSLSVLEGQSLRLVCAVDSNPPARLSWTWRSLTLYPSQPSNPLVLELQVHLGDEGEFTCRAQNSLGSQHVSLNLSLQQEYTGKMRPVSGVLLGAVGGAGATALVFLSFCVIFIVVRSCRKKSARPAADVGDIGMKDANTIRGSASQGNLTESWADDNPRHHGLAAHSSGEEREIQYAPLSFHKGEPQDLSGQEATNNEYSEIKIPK
- ASSAY_COMMENT: cell-based or functional assay
Consider the following partition of reported Maximal downregulation (% Siglec-7 remaining) into named classes: class 0: < 8%; class 1: ≥ 8% and < 10%; class 2: ≥ 10%

BINDER	GROUP_LABEL
S7AB-H8.29 (antibody, V domains shown) VH: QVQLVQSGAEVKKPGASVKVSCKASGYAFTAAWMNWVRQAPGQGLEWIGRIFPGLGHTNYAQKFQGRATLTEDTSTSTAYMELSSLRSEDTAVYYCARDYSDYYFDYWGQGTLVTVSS VL: DIQMTQSPSSLSASVGDRVTITCRASQDANTYLNWYQQKPGKAPKLLIYYTSRLHSGVPSRFSGSGSGTDYTLTISSLQPEDFATYYCQQGNLLPWTFGQGTKLEIK	class 0
S7AB-H8.34.2 (antibody, V domains shown) VH: QVQLVQSGAEVKKPGASVKVSCKASGYAFTAAWMNWVRQARGQRLEWIGRIFPGLGHTNYAQKFQGRATLTEDTSTSTAYMELSSLRSEDTAVYYCARDYSDYYFDYWGQGTLVTVSS VL: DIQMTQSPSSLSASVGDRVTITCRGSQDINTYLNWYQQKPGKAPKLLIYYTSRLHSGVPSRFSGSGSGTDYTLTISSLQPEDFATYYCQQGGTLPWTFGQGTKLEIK	class 0
S7AB-H8.41 (antibody, V domains shown) VH: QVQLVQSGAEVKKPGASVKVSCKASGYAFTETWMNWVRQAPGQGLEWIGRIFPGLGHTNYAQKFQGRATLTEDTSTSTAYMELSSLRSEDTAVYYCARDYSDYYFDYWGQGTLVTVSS VL: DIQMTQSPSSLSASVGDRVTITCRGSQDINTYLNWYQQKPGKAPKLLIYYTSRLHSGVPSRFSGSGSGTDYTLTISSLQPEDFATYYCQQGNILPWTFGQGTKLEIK	class 1
S7AB-H8.25 (antibody, V domains shown) VH: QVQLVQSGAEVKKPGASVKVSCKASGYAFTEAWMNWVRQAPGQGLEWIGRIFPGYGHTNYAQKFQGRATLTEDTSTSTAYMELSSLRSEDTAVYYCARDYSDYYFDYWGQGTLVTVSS VL: DIQMTQSPSSLSASVGDRVTITCRASEDINTYLNWYQQKPGKAPKLLIYYTSRLHSGVPSRFSGSGSGTDYTLTISSLQPEDFATYYCQQGGTLPWTFGQGTKLEIK	class 1
S7AB-H8.8 (antibody, V domains shown) VH: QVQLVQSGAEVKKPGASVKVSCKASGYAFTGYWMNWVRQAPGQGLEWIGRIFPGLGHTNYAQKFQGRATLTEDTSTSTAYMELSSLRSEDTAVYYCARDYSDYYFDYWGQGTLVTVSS VL: DIQMTQSPSSLSASVGDRVTITCRGSQDINTYLNWYQQKPGKAPKLLIYYTSRLHSGVPSRFSGSGSGTDYTLTISSLQPEDFATYYCQQGNTKPWTFGQGTKLEIK	class 2
S7AB-H8.5 (antibody, V domains shown) VH: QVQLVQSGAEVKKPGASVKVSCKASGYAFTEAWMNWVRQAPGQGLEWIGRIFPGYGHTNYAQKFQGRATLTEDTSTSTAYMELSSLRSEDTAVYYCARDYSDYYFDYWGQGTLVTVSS VL: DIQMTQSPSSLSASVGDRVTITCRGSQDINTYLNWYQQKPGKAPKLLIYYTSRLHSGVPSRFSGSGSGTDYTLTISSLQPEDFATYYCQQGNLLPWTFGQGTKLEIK	class 1
S7AB-H8.33 (antibody, V domains shown) VH: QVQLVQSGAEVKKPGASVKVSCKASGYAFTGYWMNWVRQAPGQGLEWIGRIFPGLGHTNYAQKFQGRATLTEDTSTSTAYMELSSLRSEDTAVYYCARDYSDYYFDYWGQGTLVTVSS VL: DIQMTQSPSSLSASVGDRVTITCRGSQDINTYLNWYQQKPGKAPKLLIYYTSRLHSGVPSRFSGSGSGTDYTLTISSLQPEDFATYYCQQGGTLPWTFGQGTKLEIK	class 2
S7AB-H8.22 (antibody, V domains shown) VH: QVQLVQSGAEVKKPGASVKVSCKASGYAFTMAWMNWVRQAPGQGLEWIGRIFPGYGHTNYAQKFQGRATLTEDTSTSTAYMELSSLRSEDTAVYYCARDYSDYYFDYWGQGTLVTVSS VL: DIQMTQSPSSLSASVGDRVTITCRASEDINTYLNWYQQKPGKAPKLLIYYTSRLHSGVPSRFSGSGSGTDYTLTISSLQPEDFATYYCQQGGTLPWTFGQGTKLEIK	class 0
S7AB-H8.11 (antibody, V domains shown) VH: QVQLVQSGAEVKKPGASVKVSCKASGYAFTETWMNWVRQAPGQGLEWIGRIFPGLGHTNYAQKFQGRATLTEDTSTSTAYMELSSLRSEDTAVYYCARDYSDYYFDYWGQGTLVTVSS VL: DIQMTQSPSSLSASVGDRVTITCRGSQDINTYLNWYQQKPGKAPKLLIYYTSRLHSGVPSRFSGSGSGTDYTLTISSLQPEDFATYYCQGGNTLPWTFGQGTKLEIK	class 2

The measurements presented in this section are drawn from patent US20210246204A1.
